Numbers sourced from paper PMC9928118.

# System: GST-tagged Cn
# Protocol details: PEPperPRINT peptide microarray binding assay with GST-tagged Cn
# Condition: GST-tagged Cn, mean over the spots on the chip (two locations)
Give met when the value for Chip Fluorescence (mean) is at least -0.04. Give not met when it is less.

- Query sequence: "RNPGQALLELKGHSAQ [SeqRBMlowT_7734]"
  Discrete label: "not met"
- Query sequence: "TFWTNPQFVTLVKDGD [SeqRBM_8117]"
  Discrete label: "not met"
- Query sequence: "PAFFCEGFTIQADSLD [Seqshuffled_9825]"
  Discrete label: "met"
- Query sequence: "KKMSPPCINIDPAPTN [SeqRBMlowT_1811]"
  Discrete label: "not met"
- Query sequence: "KMAKFLINLSAEKSVM [Seqrandom_9965]"
  Discrete label: "not met"
- Query sequence: "ASGLSPRIEITPSHEL [SeqNFATC2_Homo_sapiens]"
  Discrete label: "met"
- Query sequence: "LEAAPPDPDRKPPNII [Seqshuffled_9311]"
  Discrete label: "not met"
- Query sequence: "GSSSSPPVDLKIPQVR [SeqRBMlowT_8820]"
  Discrete label: "met"
- Query sequence: "TSSSLPTFNFSSSVIT [SeqNUP153_Canis_lupus]"
  Discrete label: "not met"
- Query sequence: "TFWTNPQYRITLEEPD [SeqRBMlowT_212]"
  Discrete label: "met"
- Query sequence: "VQLFIHLPSSDDTGSY [SeqRBM_6875]"
  Discrete label: "not met"
- Query sequence: "TFWANPQFKIRLEEPD [SeqRBMlowT_2213]"
  Discrete label: "not met"
- Query sequence: "KKMSPPCINIDPAPEN [SeqRBMlowT_2410]"
  Discrete label: "not met"
- Query sequence: "SAGAGVQIVITVTEAE [SeqRBMlowT_1437]"
  Discrete label: "not met"
- Query sequence: "LKDESPEVRLNIISKL [SeqRBMlowT_3831]"
  Discrete label: "met"
- Query sequence: "PDEAQPGIVVHVCELP [SeqRBMlowT_301]"
  Discrete label: "met"
- Query sequence: "KVRTALYFTWNLTERG [Seqshuffled_9698]"
  Discrete label: "met"
- Query sequence: "ATDTTPSVVVHVCESD [SeqRCN1_Macaca_mulatta]"
  Discrete label: "met"
- Query sequence: "GVHSCPALSVDRPQNQ [Seqshuffled_9565]"
  Discrete label: "met"
- Query sequence: "PGCATPRIAITPTENM [SeqRBM_2983]"
  Discrete label: "met"
- Query sequence: "STSSLPTFSFSSPKPQ [SeqRBMlowT_8920]"
  Discrete label: "not met"
- Query sequence: "TDHMNPQITISSKEND [SeqRBM_3457]"
  Discrete label: "met"
- Query sequence: "FSNKASKARRMEPLSI [SeqRBM_824]"
  Discrete label: "met"
- Query sequence: "HVSSSSDITITPTQHR [SeqRBMlowT_2715]"
  Discrete label: "not met"
- Query sequence: "HSKFIPKLSLQSPVHH [SeqRBMlowT_1695]"
  Discrete label: "not met"
- Query sequence: "FNSWRQVPLWSPEFHT [SeqRBM_9832]"
  Discrete label: "met"

* * *

# Chip Fluorescence (mean) per record follows
# Test system: GST-tagged Cn
# Protocol details: PEPperPRINT peptide microarray binding assay with GST-tagged Cn
# Condition: mean over the chip locations listed for the peptide (two spots)
Reported property: Chip Fluorescence (mean)

- Query sequence: "QSNSTPTITITPPSDA [SeqRBM_9156]"
  Test result: 2.436
- Query sequence: "ASVSNPEITVTSAETE [SeqRBM_9489]"
  Test result: 1.275
- Query sequence: "FLGRGPQLEDFDPSRD [Seqshuffled_9338]"
  Test result: 0.4051
- Query sequence: "KKMSPPCIVVSPPEED [SeqRBMlowT_306]"
  Test result: 1.9169
- Query sequence: "RSYDVPVFLFTYLPNP [SeqRBM_7048]"
  Test result: 0.06008
- Query sequence: "NIEKMPELQACGHTSF [SeqRBM_2022]"
  Test result: 1.485
- Query sequence: "GTESTPSVVVHVCESE [SeqRCN1_Pongo_abelii]"
  Test result: 1.0203
- Query sequence: "GGPGTPTRQGQHLAPG [SeqRBMlowT_9846]"
  Test result: 2.702
- Query sequence: "ADEANPRITITPAELP [SeqRBMlowT_3131]"
  Test result: 1.499
- Query sequence: "VAQAFNVDGNCTQYWN [Seqrandom_9942]"
  Test result: 1.446
- Query sequence: "GHSHNPSITITFAEAE [SeqRBM_9189]"
  Test result: 1.127
- Query sequence: "GGPGTPTRQGQPLAPS [SeqRBMlowT_7789]"
  Test result: 0.9288
- Query sequence: "ADEASPRIVITPPELP [SeqRBMlowT_1222]"
  Test result: 0.5727
- Query sequence: "TFWTNPQYRLKLEDPD [SeqRBMlowT_1296]"
  Test result: 1.564
- Query sequence: "TFWSNPQFDIALDDDD [SeqRBM_1928]"
  Test result: 1.75
- Query sequence: "GTETTPSIVVHVCEDD [SeqRBMlowT_128]"
  Test result: 1.374
- Query sequence: "TFWTNPQFRIKLEEVD [SeqRBMlowT_2987]"
  Test result: 2.469
- Query sequence: "TFWTNPQYRMVLDEDD [SeqRBM_7411]"
  Test result: 1.404
- Query sequence: "SFVHLPDFKVESLVRR [Seqshuffled_9544]"
  Test result: 0.5898
- Query sequence: "GDPITVTFSFKQQSIR [Seqshuffled_9986]"
  Test result: -0.3717
- Query sequence: "NDHALPEITVTPAELP [SeqRBM_7856]"
  Test result: 1.654
- Query sequence: "ADEAIPEIVISKPEEP [SeqRBMlowT_2534]"
  Test result: 3.2425
- Query sequence: "SSRSSSRPARSPERKP [SeqRGA2_Fusarium_oxysporum]"
  Test result: 0.8375
- Query sequence: "TFWMNPQYMIKLEEED [SeqCAPN11_Monodelphis_domestica]"
  Test result: 0.2921
- Query sequence: "ADEAPPEITITPAELP [SeqRBMlowT_445]"
  Test result: 0.1816
- Query sequence: "ADEAPPRITITPYELP [SeqRBMlowT_5415]"
  Test result: 1.112
- Query sequence: "TFWTNPQFRLKLVDVD [SeqRBMlowT_5534]"
  Test result: 0.4656
- Query sequence: "QELFISNITVDHSGSY [SeqCEACAM5_Aotus_nancymaae]"
  Test result: 1.438

* * *

# Test system: GST-tagged Cn
# Protocol details: PEPperPRINT peptide microarray binding assay with GST-tagged Cn
# Condition: mean over the chip locations listed for the peptide (two spots)
Each entry below carries its recorded Chip Fluorescence (mean).
Reported property: Chip Fluorescence (mean)

- Query sequence: "DRMAQDSMGWCRECLM [Seqrandom_9951]"
  System tested: "GST-tagged Cn"
  Test result: 1.593
- Query sequence: "KGCAAPAISIDFAPIN [SeqRBM_541]"
  System tested: "GST-tagged Cn"
  Test result: 0.8691
- Query sequence: "PGLYDNALGIEQFTLS [SeqRBMlowT_2874]"
  System tested: "GST-tagged Cn"
  Test result: 1.628
- Query sequence: "LCWFLDYRVVLPFFAY [Seqshuffled_7970]"
  System tested: "GST-tagged Cn"
  Test result: 1.641
- Query sequence: "QRFFCVRYDVNPCINW [Seqrandom_9944]"
  System tested: "GST-tagged Cn"
  Test result: 0.2678
- Query sequence: "DTLWIGSGTVTDSGNY [SeqRBM_1220]"
  System tested: "GST-tagged Cn"
  Test result: 0.1629
- Query sequence: "TTLVIPQMRLTSEATF [SeqRBM_1117]"
  System tested: "GST-tagged Cn"
  Test result: 1.324
- Query sequence: "RTRRISPLFDNPNSKQ [Seqshuffled_9774]"
  System tested: "GST-tagged Cn"
  Test result: 0.7359
- Query sequence: "SAGTGVGIVITVTEAE [SeqRBMlowT_1404]"
  System tested: "GST-tagged Cn"
  Test result: 0.4123
- Query sequence: "TFWTNPQYRITLEDED [SeqRBMlowT_1185]"
  System tested: "GST-tagged Cn"
  Test result: 0.2377
- Query sequence: "TFWTNPQYRLKLEDVD [SeqRBMlowT_929]"
  System tested: "GST-tagged Cn"
  Test result: 1.294
- Query sequence: "ESSTTPGVVVHICEDD [SeqRBM_7485]"
  System tested: "GST-tagged Cn"
  Test result: 1.544
- Query sequence: "VDIATNDLISELCNLC [Seqrandom_9952]"
  System tested: "GST-tagged Cn"
  Test result: 0.2161
